Test system: purple nutsedge
Experiment: Test B pre/postemergence purple nutsedge
Type: in vivo, Cyperus rotundus
Conditions: Preemergence, Rate 250 g/ha; scale 0 (no effect) to 10 (complete control)
Method: […] At the same time, these crop and weed species were also treated with postemergence applications of test chemicals formulated in the same manner. […] Treated plants and controls were maintained in a greenhouse for twelve to sixteen days, after which all species were compared to controls and visually evaluated. […]
For each record, write down the corresponding Nutsedge plant response rating.
Numbers only.

Reference set, count: 2
CC(C)N(C(=O)n1oc(=O)n(CCCCCl)c1=O)c1ccc(F)cc1	0
CC(C)N(C(=O)n1oc(=O)n(C(C)C(=S)N(C)C)c1=O)c1ccc(Cl)cc1 (centres unmarked)	0

The following molecules each have a reported value; give each one's Nutsedge plant response rating.
1. CC(C)N(C(=O)n1oc(=O)n(CCCCl)c1=O)c1ccccc1
2. CC(C)N(C(=O)n1oc(=O)n(CCN(C)C(=O)c2ccccc2)c1=O)c1ccccc1
3. CCOP(=O)(Cn1c(=O)on(C(=O)N(c2ccc(F)cc2F)C(C)C)c1=O)OCC

[7, 0, 0]
